These measurements were taken from PubChem BioAssay (EPA / NIEHS).

test: CPHEA_Stoker_NIS_Cytotoxicity: Cytotoxicity Assessment for CPHEA's Radioactive Iodide Uptake (RAIU) Assay for Sodium/Iodide Symporter (NIS) Inhibition, Stoker and Laws Labs (AID 2283897)
Activity calls are given as the source filed them. Rule for the calls: active = hit-call score of the fitted dose curve at least 0.9, where 1 is the maximum; inconclusive = response in the unintended direction; inactive = score below 0.9.
Permitted responses: active, inactive

Use these answered entries as a reference point.
- compound structure string: "CCCCCCCC/C=C\\CCCCCCCC(=O)N(C)CC(=O)O"
  assigned category: "inactive"
- compound structure string: "CCCCCCCCCc1ccc(OCCO)cc1"
  assigned category: "active"
- compound structure string: "CCN=C1C=CC(=C(c2ccc(N(CC)CC)cc2)c2ccc(N(CC)CC)cc2)c2ccccc21"
  assigned category: "active"
- compound structure string: "CCCCCCCCCCCCC[N+](C)(C)Cc1ccccc1"
  assigned category: "inactive"

Next compound, please.
[ask] Assay result, entry O=C1C=CC(=O)N1c1ccccc1 — outcome?
[reply] active
